Experimental endpoint: IC50 (µM)
Reply numerically in µM, unit not repeated.

human aldose reductase (HAR) (Homo sapiens) assay, compound Oc1cc(O)c2c(c1)O[C@H](c1ccc(O)c(O)c1)[C@@H](O)C2 [(+)-Catechin] , recorded IC50 = 2620
